Please provide measured pIC50 for the entries that follow.
- METHOD: Antiproliferative activity against human DU145 cells
- Format: functional, cell-based
- CONDITION_PARAMETERS: DU-145
Quick note: pIC50 values are minus log10 of concentrations in mol/L.

Which pIC50 reading was recorded for the compound O=C(CCCCCCC(=O)Nc1nc(-c2ccccc2)cs1)NO ? 6.72

What about O=C(CCCCCCC(=O)Nc1nc(-c2cccc([N+](=O)[O-])c2)cs1)NO ? 6.49

What about Nc1cccc(-c2csc(NC(=O)CCCCCCC(=O)NO)n2)c1 ? 6.49

What about CCOC(=O)Nc1cccc(-c2csc(NC(=O)CCCCCCC(=O)NO)n2)c1 ? 6.28

What about Nc1ccccc1-c1ccc(NC(=O)CCCCCCC(=O)NO)cc1 ? 6.74

What about O=C(CCCCCCC(=O)Nc1ccc(-c2ccccc2)cc1)NO ? 6.24

====

- METHOD: Antiproliferative activity against human MDA231 cells
- Type: functional, cell-based
- CONDITION_PARAMETERS: MDA-MB-231
MEASURED_PROPERTY: IC50

Which IC50 reading was recorded for the compound Nc1ccccc1-c1ccc(NC(=O)CCCCCCC(=O)NO)cc1 ? 1000 nM

What about O=C(CCCCCCC(=O)Nc1nc(-c2cccc([N+](=O)[O-])c2)cs1)NO ? < 400 nM

What about Nc1cccc(-c2csc(NC(=O)CCCCCCC(=O)NO)n2)c1 ? < 400 nM

What about O=C(CCCCCCC(=O)Nc1ccc(-c2ccccc2)cc1)NO ? < 400 nM

What about O=C(CCCCCCC(=O)Nc1nc(-c2ccccc2)cs1)NO ? < 400 nM

====

- Tested on: Plasmodium falciparum
- METHOD: Antiparasitic activity against chloroquine-resistant/verapamil-sensitive Plasmodium falciparum Dd2
- Type: functional
MEASURED_PROPERTY: IC50 (nM)
Your answer should be a plain number; it is taken to be in nM.

Param readout= IC50; system= Plasmodium falciparum; entry= CN(C)c1ccc(NC(=O)NCCCCCCC(=O)NO)cc1 ; returns value. 185

What about O=C(CCCCCCC(=O)Nc1nc(-c2cccc([N+](=O)[O-])c2)cs1)NO ? 12

====

- Tested on: Plasmodium falciparum
- METHOD: Antiparasitic activity against chloroquine-resistant/verapamil-sensitive Plasmodium falciparum FCR-3/Gambia
- Assay type: functional
Please provide measured pIC50 for the entries that follow.
Quick note: pIC50 values are minus log10 of concentrations in mol/L.

Which pIC50 reading was recorded for the compound CN(C)c1ccc(NC(=O)NCCCCCCC(=O)NO)cc1 ? 6.76

What about O=C(CCCCCCC(=O)Nc1nc(-c2cccc([N+](=O)[O-])c2)cs1)NO ? 7.66

====

- METHOD: Antiproliferative activity against human MCF7/ADR cells
- Assay type: functional, cell-based
- CONDITION_PARAMETERS: NCI/ADR-RES
MEASURED_PROPERTY: IC50 (µM)
Your answer should be a plain number; it is taken to be in µM.

Which IC50 reading was recorded for the compound O=C(CCCCCCC(=O)Nc1nc(-c2ccccc2)cs1)NO ? 0.4

What about O=C(CCCCCCC(=O)Nc1ccc(-c2ccccc2)cc1)NO ? 0.35

What about Nc1ccccc1-c1ccc(NC(=O)CCCCCCC(=O)NO)cc1 ? 10

What about O=C(CCCCCCC(=O)Nc1nc(-c2cccc([N+](=O)[O-])c2)cs1)NO ? 3

What about Nc1cccc(-c2csc(NC(=O)CCCCCCC(=O)NO)n2)c1 ? 3
